Provenance of the data: the Human Domainome abundance scans (Beltran et al. 2025)

B1: Homeobox protein cut-like 2, residues 895 to 963; numbered along this chain, O14529 (parent)
chain: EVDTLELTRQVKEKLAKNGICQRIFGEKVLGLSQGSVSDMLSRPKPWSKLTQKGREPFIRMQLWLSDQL

variants of: B1; test: abundance fitness (aPCA) (normalised: wild type 0, dead -1); higher = more abundant; growth selection in yeast, the domain comes from the species named; details: Homo sapiens
Reported abundance fitness values are given for each entry in this list.
Field format: numeric only.

Guide cases for abundance fitness, answers given:
Sample `K12H` — what was its abundance fitness?
-0.354

Here is the next variant: `P44Q`
-0.135

Here is the next variant: `Q68Y`
-0.105

Here is the next variant: `K17D`
-0.175

Here is the next variant: `R43K`
-0.047

Here is the next variant: `T4D`
-0.092

Here is the next variant: `M61C`
-0.292

Here is the next variant: `V29Y`
-0.145

Here is the next variant: `L5M`
0.122

Here is the next variant: `Q22N`
-0.461

***
Sample `R9G` — what was its abundance fitness?
-0.129

Here is the next variant: `F58A`
-0.917

Here is the next variant: `K17G`
-0.234

Here is the next variant: `R55P`
-0.814

Here is the next variant: `L5W`
-0.021

Here is the next variant: `K12D`
-0.025

Here is the next variant: `G26P`
-0.219

Here is the next variant: `Q34W`
0.088

Here is the next variant: `K12F`
-0.748

Here is the next variant: `W64C`
-0.946

Here is the next variant: `R60P`
-0.912

Here is the next variant: `Q62R`
0.015

Here is the next variant: `L63Q`
0.078

Here is the next variant: `R9Y`
-0.261

Here is the next variant: `F25T`
-0.449

Here is the next variant: `P57Y`
0.027

Here is the next variant: `E1W`
-0.239
